# Test system: K4 kissing-loop RNA reporter
# test: apparent KD of K4 kissing-loop reporter; higher = weaker reporter binding
# protocol conditions: Eterna round: R107; input ligand: arginine 13.2 mM
// apparent KD of K4 kissing-loop reporter lookup, one value per entry
Number in µM, nothing else.

Solved entries:
ACGUAGUUCUAGGAUACCAGCCAAGAAGCCAGGACAAAAGUCCUGGCUGCCAGUGAUGUUGGCCCUUGGCAGCCUAGAACUACGA [Omei KL Theo B Exc B v10] : 0.113
GAUAUAGUGAUGUUAUAUAGGAAGGAGUUACGAGGACCGGUACGGCCGCCACUCGAAACGAGUGAUGAUUUGGGAGAUUGGGUUG [SSTryptA.P] : 0.359
UGACAUUGCUCAGAUACCAGACAAGAGGAUCACCCUUGUGCCAACGUACAAAUAAUAAAUGUCCCUUGGCAGCUGAGCAAUGUCU [TheoBX 15] : 0.0319
UAGUAGCUCUCGGCCGCCACUCCUCAGUGAUGUUGAGAUAUUAAGAGCCAAUUGGCUCAUAUAAAGAGGACCGGGAGAGCUACAU [AK4.2 SS Tryptophan B] : 0.339
AGCAUUAUCAGAAGGAGCGUGUAUAAAUCAAUAGUAUUGUAUUCGAGUGAUGUUCGUAAUACACAGGUAGGUCGCUGAUAUUGCA [JR_ExcArginiB_Sub002] : 0.172
CUUUAUCAACCAGAUACCAGCGGUUCUCUAGUUGGCUUCCGUAGUGAUGUUGCGUGGUCCCGCCCUUGGCAGCUGGCCAUGACUA [theeternabot_sameState_KL_Theo_B_5] : 0.684

We now examine a further sequence.
Exercise: Identify apparent KD of K4 kissing-loop reporter associated with the sequence AUAGGAGUGAUGUUCCUUAGUUUCUCCGAUACCAGUAUGGAAACAUACCCUUGGCAGCGGGAGACCGCUGAUUAGGAAACUAGUC [Theophylline A K4 8]
Key: 0.242

---

# System: K4 kissing-loop RNA reporter;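 also: bound reporter read as fluorescence of individual clusters on recovered sequencing chips by microscopy, with normalized cluster intensities fitted with a binding model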
# test: apparent KD of K4 kissing-loop reporter; higher = weaker reporter binding
# protocol conditions: Eterna round: R107; input ligand: FMN 200 uM
// apparent KD of K4 kissing-loop reporter lookup, one value per entry
Number in nM, nothing else.

ACUAAGGUUUUUGGAGCAGUGAUGUUGCUCCGAGGACCGGUACGGCCGCCACUCGGUGCAUGUAUGCGCUUCACUCCGGAAGUUG [Bieron] : 152
CAAUGAGUAUAAGAUGAUAUCAUAACAGAAGGAGCGAGUGAUAACUCAGGUAGGUCGCUGAAUUUAUCGAGUGAUGUUCGAUAAA [whbob_SS_Arginine_A_sa116] : 205
UGUCAUUGGUCGGCCGCCACUAGGACCGGGACUUCUCUAGUGAUGUUAGUCUGGUCGGCCGCCACUAGGACCGGGACCGAUGACU [KL-SSTryp-B14 #DoubleAptamer] : 561
AGUGAUGUAUGGCGGUUUGUCACUUAUUAUCAGGAUAUAUAAACAAAUAGAAGGGAUGGCGGAGUGAUGUUCCGCCGGCCGCCAU [FMN A Exl V5] : 172
GCCGAAUCGUUGGGCUCAGUGAUGUUGAUCCGAGGACCGGUACGGCCGCCACUCGAAUGGCAGUGACCACACUGGUAACGUUAAA [theeternabot_exclusion_KL_Trp_A_43] : 573
CGAGUGAUGUUCGAAGAGUUGUUGAGCGAUACCAGCCAGGAAACUGGCCCUUGGCAGCGUAAUAAAUAAAUAAAUAAAUGAUCAC [whbob_Ex_Theo_A_th61] : 364
AGGAGCUGUCGACAAAAGUCGACAUAAACCAAGGAUAUGACGAAAGUCAGAAGGUGGUCAUAAGACCAGUGAUGUUGGUAGCUCC [FmnA 10 #SwitchBubble #K4Late] : 952
UGUGGUGUAUCCUUUAGGAGUGAUGUUUUUCGAGGACCGGUACGGCCGCCACUCGAGUGAUGAGAGCGUCGUUGUGGUGGUUUGU [#16 K4 Tryptophan A Exclusion] : 1060
UUCUACGAGUGAUGUUCGUAGUGUAUUCACUAGGAUAUCGUUUUUUCGAGAAGGAGUGAGGAAGUGAUACGAAAGUAUCGCUUCC [FMN A 15] : 192
UCCUGCAAUCGGCCACGAAAGUGGAUUGAUACCAGAGUCGAAAGACUCCCUUGGCAGCGAGUGAUGUUCGAAGCAGGUAAAUAAA : 464

Exercise: Identify apparent KD of K4 kissing-loop reporter associated with the sequence GUUACUUCAGAAGGAUAUUAGUAAACAACACGGUAGUGAUGUUACCGUUAUCAAGCCCGGCUUCACUAAGAAGGUCUCCACCGCG [theeternabot_sameState_KL_FMN_B_23]
Key: 52

Exercise: Identify apparent KD of K4 kissing-loop reporter associated with the sequence AAUUUCGGAUACAUCAUAGUUUUAAUUCGGCGAGGACCGGUACGGCCGCCACUCGGUAUAGACGCGUCCAGUGAUGUUGGCGCUU [theeternabot_sameState_KL_Trp_A_45]
Key: 262

Exercise: Identify apparent KD of K4 kissing-loop reporter associated with the sequence AUACGUUUAAGUGAUACCAGACUGGUGAGUGAUGUUUACCAAUAAAUUAAAUUAUUAGCUGUCCCUUGGCAGCACAGUUUAUUUA [JR_ExcTheophyB_Sub005]
Key: 258

Exercise: Identify apparent KD of K4 kissing-loop reporter associated with the sequence GUGCAGUGAUGUUGCACGAGGAAAGACGAUACCAGCCGUAAAUAAGGCCCUUGGCAGCGUGGACUAGCAUAAAGUAUGCUAGCCU [Isenaonle]
Key: 118

Exercise: Identify apparent KD of K4 kissing-loop reporter associated with the sequence UGGAUAUCGUUUAGUCUGGUGAGCUCAGAUACCAGACUAGCGAUGGUCCCUUGGCAGCUGAUUACGAUUGAGUGAUGUUCAAUCG [Theo A Ex t9c]
Key: 168

Exercise: Identify apparent KD of K4 kissing-loop reporter associated with the sequence AAUAAGGUCGCCGAUACCAGCGCAGGCAGAGCAAAGCUCUGCCAAGUAGUGAUGUUACUGCGCCCUUGGCAGCGGUGGCACGACC [Omei KL Theo B SS C v3]
Key: 196

Exercise: Identify apparent KD of K4 kissing-loop reporter associated with the sequence CCCUUAGACUCGGCCGCCACUCGUACCGAGAGCAUGCCACCCAUUAGUGAUGUUAAUUUGUCCUUGAGGACCGGGAGCCUAGGAA [theeternabot_exclusion_KL_Trp_B_44]
Key: 941

Exercise: Identify apparent KD of K4 kissing-loop reporter associated with the sequence AAAUAAAACUAUGAUACCAGUCAUCACAGAGUGAUGUUUUGUGGCAUUUUAAACUUGGCAGACCCUUGGCAGCAUGAUAUAGGAG [theeternabot_sameState_KL_Theo_B_8]
Key: 486

---

# System: MS2 coat protein
# test: apparent KD of MS2 coat protein; higher = weaker reporter binding
# protocol conditions: Eterna round: R107; input ligand: arginine 13.2 mM
readout: apparent KD of MS2 coat protein (nM)
Number in nM, nothing else.

GAUUGGUAUAGAAGGAGCGUCGAAAAUGGGUAAACAUGAGGAUCACCCAUGUAAAGGGAACGACAGGUAGGUCGCUAUAUUAAUC [AstromonsSSArgB#30] : 146
AUUCAUGGAAACAUGACAUAGGGAUCACUCCGAGGACCGGUACGGCCGCCACUCGCGAGGAGGCACAUGAGGAUCACCCAUGUUA [SS Tryp A #4] : 27
UGGAUAAGGGUAAAUAGGAUAAGUACAGAAGGAGCGCGAAUAAACGCAGGUAGGUCGCUGGACAUGAGGAUCACCCAUGUAAAUG [Same State Arginine A GF 22] : 45.9
AAGGCACGAGACAUGAGGAUCACCCAUGUUCGAGGACCGGUACGGCCGCCACUCGGUGGACUCAUGGUAAAGCCGGUGAGCCAAA [AK 1.1 SS Trypt (A)] : 18
UGUACAUAAUUAGGUUACCUAUGUACAGAAGGAGCGUCGAUGACGACAGGUAGGUCGCUGUUAACAUGAGGAUCACCCAUGUACA [Arg A Ex t4] : 37.7
CCUAUGCAGUCGGCCGCCACUGAGUCCUCAAUAAUAAAUUAUUAUACAUGAGGAUCACCCAUGUACAGGACCGGGACUGUAUAGG [Ex Tryptophan B 14] : 89

Exercise: Identify apparent KD of MS2 coat protein associated with the sequence GGUCUCGAGGGCGAUACCAGCUUGAUCGUACUGGCCUGGUACAUGAGGAUCACCCAUGUAAGCCCUUGGCAGCGCGCUCGAGACC [#1 Exclusion - Theophylline B Attempt #6 (HarryS)]
Key: 7.85

Exercise: Identify apparent KD of MS2 coat protein associated with the sequence CUGUACAUCUCGGCCGCCACUGCAACAUGUACACAUGGACAUGUACAUGAGGAUCACCCAUGUGGCAGGACCGGGAGGUGUGCAG [SSTryp B #28]
Key: 99.8

Exercise: Identify apparent KD of MS2 coat protein associated with the sequence UACAUGAGGAUCACCCAUGUGUAACCAGAAGGAGCGUGCGAAAGCACAGGUAGGUCGCUGGUGGGUUUAGGUUUAAUAGGUGUAU [SSAA NP+V+V2 #4 +-Same Structure]
Key: 32.8

Exercise: Identify apparent KD of MS2 coat protein associated with the sequence UGACAUUGCUCAGAUACCAGACAUGAGGAUCACCCAUGUACCGAGGUACCCGAAAGGAAUGUCCCUUGGCAGCUGAGCAAUGUCU [TheoBX 4 #MS2Left #Theo2 #StaticStem]
Key: 12.9
